# target under test: CYP2C9 (Homo sapiens)
# Sequence (P11712 whole entry): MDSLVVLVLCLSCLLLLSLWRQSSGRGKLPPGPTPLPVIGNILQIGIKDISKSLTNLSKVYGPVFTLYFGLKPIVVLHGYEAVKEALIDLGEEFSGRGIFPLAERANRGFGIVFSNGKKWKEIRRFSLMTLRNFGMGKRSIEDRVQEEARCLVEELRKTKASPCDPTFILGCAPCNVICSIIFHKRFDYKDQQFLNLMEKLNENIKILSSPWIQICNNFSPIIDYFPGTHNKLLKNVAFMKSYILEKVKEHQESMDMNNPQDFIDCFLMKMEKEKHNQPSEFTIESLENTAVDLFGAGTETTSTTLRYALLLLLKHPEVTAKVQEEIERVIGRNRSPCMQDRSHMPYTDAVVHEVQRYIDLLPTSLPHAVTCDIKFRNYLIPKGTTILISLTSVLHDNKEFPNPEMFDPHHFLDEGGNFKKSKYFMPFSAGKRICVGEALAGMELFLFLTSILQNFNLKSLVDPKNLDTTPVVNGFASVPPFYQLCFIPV
# assay remarks: Vivid CYP screening kit, recombinant CYP2C9
# condition summary: recombinant enzyme, 15 min incubation, absolute IC50; read-out: CYP2C9 inhibition IC50
readout name: IC50
Form entry: enter the amount, then its unit.

Problem: I'd like to know its IC50. The compound in question is C[C@@H]1CN(C(=O)c2ccc(NC(=O)c3cc(O[C@H](C)c4c(Cl)ccc(F)c4Cl)c(N)nn3)cc2)C[C@H](C)N1 [ensartinib, Ensartinib]
Result: 4.93 µM

====

# target under test: CYP2D6 (Homo sapiens)
# Sequence (P10635 whole entry): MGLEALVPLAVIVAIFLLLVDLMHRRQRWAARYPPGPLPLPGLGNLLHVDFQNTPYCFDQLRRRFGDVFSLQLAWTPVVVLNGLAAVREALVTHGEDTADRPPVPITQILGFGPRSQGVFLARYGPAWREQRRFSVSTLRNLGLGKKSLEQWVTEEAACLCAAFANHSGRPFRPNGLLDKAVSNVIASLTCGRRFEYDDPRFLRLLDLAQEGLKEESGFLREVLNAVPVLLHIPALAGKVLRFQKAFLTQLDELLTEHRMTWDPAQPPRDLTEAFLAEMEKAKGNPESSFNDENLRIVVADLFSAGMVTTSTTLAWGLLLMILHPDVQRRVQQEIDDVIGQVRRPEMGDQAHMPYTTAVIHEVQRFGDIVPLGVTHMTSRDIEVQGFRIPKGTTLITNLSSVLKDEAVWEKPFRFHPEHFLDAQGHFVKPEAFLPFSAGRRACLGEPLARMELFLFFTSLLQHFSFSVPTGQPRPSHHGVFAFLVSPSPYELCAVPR
# assay remarks: Vivid CYP screening kit, recombinant CYP2D6
# condition summary: recombinant enzyme, 15 min incubation, absolute IC50; read-out: CYP2D6 inhibition IC50
pIC50: −log10 of the molar value.
readout name: pIC50

Problem: I'd like to know its pIC50. The compound in question is C[C@@H]1CN(C(=O)c2ccc(NC(=O)c3cc(O[C@H](C)c4c(Cl)ccc(F)c4Cl)c(N)nn3)cc2)C[C@H](C)N1 [ensartinib, Ensartinib]
Result: < 4.30

====

# target under test: CYP3A4 (Homo sapiens)
# Sequence (P08684 whole entry): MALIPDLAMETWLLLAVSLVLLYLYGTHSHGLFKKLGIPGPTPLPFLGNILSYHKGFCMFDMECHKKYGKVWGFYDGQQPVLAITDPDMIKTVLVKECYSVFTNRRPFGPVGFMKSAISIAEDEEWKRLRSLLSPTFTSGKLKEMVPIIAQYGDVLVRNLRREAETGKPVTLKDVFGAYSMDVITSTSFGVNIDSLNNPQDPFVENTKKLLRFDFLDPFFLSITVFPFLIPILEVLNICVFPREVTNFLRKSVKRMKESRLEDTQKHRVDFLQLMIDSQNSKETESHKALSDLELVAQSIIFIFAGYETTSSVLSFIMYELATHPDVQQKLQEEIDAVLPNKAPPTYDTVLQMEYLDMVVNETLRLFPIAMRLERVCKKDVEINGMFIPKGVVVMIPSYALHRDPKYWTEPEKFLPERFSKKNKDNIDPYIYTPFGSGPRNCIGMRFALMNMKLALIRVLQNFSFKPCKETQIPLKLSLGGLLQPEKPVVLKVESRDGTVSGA
# assay remarks: Inhibition of CYP3A4 in intact HepG2-CYP3A4 cells (P450-Glo, luciferin-IPA)
# Type: cell-based
# Design: expressed in transfected cells; host or cells: HepG2-CYP3A4
# condition summary: luciferin-IPA 2 µM, 45 min, normalized to viability, read-out: IC50, inhibition of CYP3A4 in enzyme-overexpressing HepG2 cells
readout name: IC50 (µM)
Expressed in µM, but write only the number.

Problem: I'd like to know its IC50. The molecule in question is "C[C@@H]1CN(C(=O)c2ccc(NC(=O)c3cc(O[C@H](C)c4c(Cl)ccc(F)c4Cl)c(N)nn3)cc2)C[C@H](C)N1"
Result: 23.5

====

# target under test: ABCB1 (Homo sapiens)
# Construct: expressed in transfected cells; host or cells: MDCKII-ABCB1 (from Dr. Alfred Schinkel, The Netherlands Cancer Institute)
# Sequence (P08183 whole entry): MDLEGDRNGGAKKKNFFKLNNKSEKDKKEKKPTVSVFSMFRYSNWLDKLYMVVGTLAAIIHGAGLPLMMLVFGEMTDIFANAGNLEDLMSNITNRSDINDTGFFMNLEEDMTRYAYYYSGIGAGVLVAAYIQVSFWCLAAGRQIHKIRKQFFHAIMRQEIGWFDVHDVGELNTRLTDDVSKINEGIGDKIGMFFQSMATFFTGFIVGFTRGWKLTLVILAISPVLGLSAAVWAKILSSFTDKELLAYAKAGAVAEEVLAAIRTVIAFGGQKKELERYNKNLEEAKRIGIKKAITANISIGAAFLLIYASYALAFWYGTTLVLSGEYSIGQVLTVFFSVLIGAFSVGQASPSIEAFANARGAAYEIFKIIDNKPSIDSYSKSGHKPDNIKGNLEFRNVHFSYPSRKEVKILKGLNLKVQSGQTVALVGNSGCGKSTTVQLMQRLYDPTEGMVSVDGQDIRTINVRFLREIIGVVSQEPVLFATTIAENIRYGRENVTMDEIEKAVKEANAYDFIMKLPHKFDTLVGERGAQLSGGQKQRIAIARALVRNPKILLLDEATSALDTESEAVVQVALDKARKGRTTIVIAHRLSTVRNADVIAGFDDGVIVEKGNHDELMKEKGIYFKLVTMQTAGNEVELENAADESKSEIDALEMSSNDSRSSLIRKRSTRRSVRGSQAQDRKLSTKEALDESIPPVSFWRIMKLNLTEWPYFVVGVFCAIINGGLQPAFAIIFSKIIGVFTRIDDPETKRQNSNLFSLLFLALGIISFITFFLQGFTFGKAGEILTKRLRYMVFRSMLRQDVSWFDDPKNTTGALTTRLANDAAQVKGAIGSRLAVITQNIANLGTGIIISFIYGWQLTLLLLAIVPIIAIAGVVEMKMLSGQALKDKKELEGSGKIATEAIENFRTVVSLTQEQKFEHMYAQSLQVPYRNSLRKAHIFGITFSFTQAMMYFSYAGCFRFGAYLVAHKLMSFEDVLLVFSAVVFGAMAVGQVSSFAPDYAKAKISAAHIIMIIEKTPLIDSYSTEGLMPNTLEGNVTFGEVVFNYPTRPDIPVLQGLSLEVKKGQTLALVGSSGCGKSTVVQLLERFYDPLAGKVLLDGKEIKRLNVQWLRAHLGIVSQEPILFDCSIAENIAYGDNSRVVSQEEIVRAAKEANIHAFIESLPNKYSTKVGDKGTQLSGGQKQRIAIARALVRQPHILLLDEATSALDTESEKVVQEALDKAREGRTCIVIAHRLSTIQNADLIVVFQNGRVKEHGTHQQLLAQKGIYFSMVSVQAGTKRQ
# assay remarks: daunorubicin accumulation assay (flow cytometry) in MDCKII-ABCB1 cells
# Format: cell-based
# condition summary: 2 µM daunorubicin, 1 h, read-out: IC50, inhibition of ABCB1 (daunorubicin accumulation)
readout name: pIC50
Lab note — pIC50 values are minus log10 of concentrations in M.

Problem: Report pIC50 for "C[C@@H]1CN(C(=O)c2ccc(NC(=O)c3cc(O[C@H](C)c4c(Cl)ccc(F)c4Cl)c(N)nn3)cc2)C[C@H](C)N1" tested on ABCB1 (Homo sapiens).
Result: 5.32
